The values you see were collected from paper PMC6238398.

# targetDesc: hStau1 deltaC (SSM and dsRBD5 removed) (Homo sapiens, UniProt O95793 1-360)
# Sequence (O95793 1-360, stated change not applied): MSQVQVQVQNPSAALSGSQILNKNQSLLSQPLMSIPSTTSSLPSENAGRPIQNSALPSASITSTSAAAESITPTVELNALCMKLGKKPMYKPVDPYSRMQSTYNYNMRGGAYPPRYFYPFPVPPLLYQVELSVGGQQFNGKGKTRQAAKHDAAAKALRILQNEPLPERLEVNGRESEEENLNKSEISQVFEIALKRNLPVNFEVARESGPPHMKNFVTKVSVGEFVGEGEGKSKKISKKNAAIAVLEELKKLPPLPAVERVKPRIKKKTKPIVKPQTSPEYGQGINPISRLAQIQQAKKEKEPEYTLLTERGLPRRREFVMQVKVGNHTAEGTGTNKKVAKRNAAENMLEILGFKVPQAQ
# runDescription: fluorescence anisotropy; FA: 10 nM 5'-FAM RNA, 20 mM Hepes pH 7.5, 150 mM KCl, RT (19-21 C); EMSA: 1 uM RNA, same buffer, 45 min on ice
# experimentalParameters: protein: recombinant; label: 5'-6-FAM on sense strand; blunt, two G-U wobbles
measuredEndpoint: pKd
# reply with the number alone; pKd is -log10 of concentration in mol/L

Given item ARF1 SBS (dsRNA) RNA 1: UGAGUGCCAGAAGCUGCCUC RNA 2: GAGGCAGUUUCUGGUACUCA , the value recorded as its pKd is 8.00
